Each recorded value in this set is attributed to patent US6352982B1.

biological target: UniProt:P31391; assay: Binding inhibition of 125I-somatostatin, CHO cell membrane fraction; conditions: 125I-somatostatin binding, 25° C. for 60 minutes, read-out: Activities for human somatostatin receptor (IC50 value) SSTR4
Sequence (P31391 whole entry): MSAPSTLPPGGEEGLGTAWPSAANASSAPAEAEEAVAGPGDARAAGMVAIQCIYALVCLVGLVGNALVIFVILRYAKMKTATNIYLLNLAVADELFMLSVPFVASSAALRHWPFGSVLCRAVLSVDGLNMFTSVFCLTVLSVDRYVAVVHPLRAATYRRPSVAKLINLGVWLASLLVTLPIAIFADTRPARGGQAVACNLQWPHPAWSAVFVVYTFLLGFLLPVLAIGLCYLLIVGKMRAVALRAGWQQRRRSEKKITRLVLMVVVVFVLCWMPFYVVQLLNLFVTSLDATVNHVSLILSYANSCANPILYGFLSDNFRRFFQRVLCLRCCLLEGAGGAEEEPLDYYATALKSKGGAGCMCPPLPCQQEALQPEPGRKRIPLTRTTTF
Kindly supply the reported IC50 values for the records listed here.
Hi! Could you send only the number? It should be in nM, unit omitted.

Fill in: IC50 of NCc1cccc(C2OC(CC(=O)NCc3ccccc3F)C(=O)N(Cc3ccc(O)cc3)c3ccc(Cl)cc32)c1 (stereo not shown) is ___
300

Repeat with COc1ccc(CN2C(=O)C(CC(=O)NCc3ccccc3F)OC(c3ccc(CN)s3)c3cc(Cl)ccc32)cc1 (stereo not shown)
1000

NCc1cccc(C2OC(CC(=O)NCc3ccccc3F)C(=O)N(Cc3ccc(-c4ccccc4)cc3)c3ccc(Cl)cc32)c1 (stereo not shown) , same question.
300

Same for "CC(C)(C)CN1C(=O)[C@H](CC(=O)NCc2ccccc2F)O[C@@H](c2cccc(CN)c2)c2cc(Cl)ccc21"
4000

Entry CC(C)(N)c1cccc(C2OC(CC(=O)NCc3ccccc3F)C(=O)N(Cc3ccc(-c4ccccc4)cc3)c3ccc(Cl)cc32)c1 (stereo not shown) please
200

"CC(C)(C)CN1C(=O)[C@@H](CC(=O)NCc2ccccc2F)O[C@H](c2cccc(CN)c2)c2cc(Cl)ccc21" ?
4000

NCc1ccc(C2OC(CC(=O)NCc3ccccc3F)C(=O)N(Cc3ccc(-c4ccccc4)cc3)c3ccc(Cl)cc32)cc1 (stereo not shown) ?
300
